# IC50 per record follows
test system: cellular H3K36me2 level in multiple myeloma cell line KMS11 (t(4;14)+); experiment: H3K36me2 cellular ELISA assay in KMS11-Par line; format: cell-based; details: Homo sapiens, KMS-11; KMS11-Par line, ELISA, 72 hours; read-out: H3K36me2 ELISA in KMS11-Par

[
  {
    "Compound": "Nc1ncnc2c1ncn2Cc1cc(-c2cc(F)c(F)cc2F)ncc1N1CCC[C@](N)([C@@H](F)CO)C1 [Example 286]",
    "Assayed target": "cellular H3K36me2 level in multiple myeloma cell line KMS11 (t(4;14)+)",
    "Bound sign": "=",
    "IC50, µM": 0.655
  },
  {
    "Compound": "Nc1nccc2c1ncn2Cc1cc(-c2ccc(F)cc2)ncc1N1CCCC(N)(c2ccn(C3CC3)n2)C1 (stereo not shown) [Example 280]",
    "Assayed target": "cellular H3K36me2 level in multiple myeloma cell line KMS11 (t(4;14)+)",
    "Bound sign": "=",
    "IC50, µM": 1.49
  },
  {
    "Compound": "CCc1cccc([C@@]2(N)CCCN(c3cnc(C4CC4)cc3Cn3cnc4c(N)nccc43)C2)n1 [Example 252]",
    "Assayed target": "cellular H3K36me2 level in multiple myeloma cell line KMS11 (t(4;14)+)",
    "Bound sign": "=",
    "IC50, µM": 7.25
  },
  {
    "Compound": "CN(C)C(=O)CC[C@@]1(N)CCCN(c2cnc(-c3ccc(F)c(F)c3)cc2Cn2cnc3c(N)ncnc32)C1 [Example 322]",
    "Assayed target": "cellular H3K36me2 level in multiple myeloma cell line KMS11 (t(4;14)+)",
    "Bound sign": ">",
    "IC50, µM": 33.7
  },
  {
    "Compound": "Nc1ncnc2c1ncn2Cc1cc(-c2ccc(F)cc2)ncc1N1CCC[C@](N)(c2ccc(F)c(Cl)n2)C1 [Example 221]",
    "Assayed target": "cellular H3K36me2 level in multiple myeloma cell line KMS11 (t(4;14)+)",
    "Bound sign": "=",
    "IC50, µM": 1.29
  },
  {
    "Compound": "Nc1nccc2c1ncn2Cc1cc(C2CC2)ncc1N1CCC[C@](N)(c2cccc(C(F)F)n2)C1 [Example 264]",
    "Assayed target": "cellular H3K36me2 level in multiple myeloma cell line KMS11 (t(4;14)+)",
    "Bound sign": "=",
    "IC50, µM": 9.63
  },
  {
    "Compound": "COc1ccc(-c2cc(Cn3cnc4c(N)ncnc43)c(N3CCC[C@](N)(C(O)C(F)F)C3)cn2)c(C(F)(F)F)c1 (stereo in doubt) [Example 167]",
    "Assayed target": "cellular H3K36me2 level in multiple myeloma cell line KMS11 (t(4;14)+)",
    "Bound sign": "=",
    "IC50, µM": 6.12
  }
]

====

biological target: NSD2 [1-1365] (Homo sapiens (Human)); assay: LC-MS/MS-based NSD2 enzymatic assay (SAH production); format: biochemical; conditions: NSD2 biochemical activity, class symbols; read-out: NSD2 IC50
Sequence (O96028 whole entry): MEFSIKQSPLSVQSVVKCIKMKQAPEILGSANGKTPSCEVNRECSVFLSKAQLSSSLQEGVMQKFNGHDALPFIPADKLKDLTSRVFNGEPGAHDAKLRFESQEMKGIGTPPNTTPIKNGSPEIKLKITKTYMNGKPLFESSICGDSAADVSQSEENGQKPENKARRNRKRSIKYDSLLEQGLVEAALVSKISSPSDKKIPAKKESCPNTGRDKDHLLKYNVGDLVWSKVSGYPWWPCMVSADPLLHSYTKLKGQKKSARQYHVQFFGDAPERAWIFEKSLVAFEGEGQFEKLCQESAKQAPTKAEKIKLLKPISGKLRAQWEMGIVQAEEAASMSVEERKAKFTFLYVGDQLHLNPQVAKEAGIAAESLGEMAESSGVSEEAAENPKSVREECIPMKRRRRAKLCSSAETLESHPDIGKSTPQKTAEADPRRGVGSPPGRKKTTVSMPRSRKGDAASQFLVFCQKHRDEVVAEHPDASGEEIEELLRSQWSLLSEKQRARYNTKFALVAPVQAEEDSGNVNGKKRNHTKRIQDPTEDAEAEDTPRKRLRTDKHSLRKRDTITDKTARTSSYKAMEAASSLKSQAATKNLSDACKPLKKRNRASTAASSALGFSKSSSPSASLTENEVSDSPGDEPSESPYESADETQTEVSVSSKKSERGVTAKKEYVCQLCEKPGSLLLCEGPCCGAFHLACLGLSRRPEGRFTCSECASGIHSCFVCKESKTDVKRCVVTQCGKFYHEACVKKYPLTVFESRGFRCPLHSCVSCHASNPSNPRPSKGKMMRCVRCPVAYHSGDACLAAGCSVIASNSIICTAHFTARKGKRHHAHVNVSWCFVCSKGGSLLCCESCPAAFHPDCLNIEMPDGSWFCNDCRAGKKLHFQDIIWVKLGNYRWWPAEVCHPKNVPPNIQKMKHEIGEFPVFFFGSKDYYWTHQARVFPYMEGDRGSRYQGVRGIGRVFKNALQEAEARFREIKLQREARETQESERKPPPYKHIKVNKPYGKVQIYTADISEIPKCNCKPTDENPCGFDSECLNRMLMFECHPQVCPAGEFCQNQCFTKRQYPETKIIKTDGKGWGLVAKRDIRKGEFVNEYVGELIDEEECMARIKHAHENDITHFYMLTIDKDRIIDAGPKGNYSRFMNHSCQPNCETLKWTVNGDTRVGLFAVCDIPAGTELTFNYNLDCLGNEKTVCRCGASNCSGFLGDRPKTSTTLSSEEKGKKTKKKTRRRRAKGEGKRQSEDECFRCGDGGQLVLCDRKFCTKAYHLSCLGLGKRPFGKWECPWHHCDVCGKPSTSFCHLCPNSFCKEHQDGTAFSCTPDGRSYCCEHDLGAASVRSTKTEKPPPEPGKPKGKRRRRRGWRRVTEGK

[
  {
    "Compound": "Nc1nccc2c1ncn2Cc1cc(-c2ccc(F)c(F)c2)ncc1N1CCC[C@](N)(Cc2nccs2)C1",
    "Assayed target": "NSD2 [1-1365] (Homo sapiens (Human))",
    "IC50": "1 to 10 nM"
  },
  {
    "Compound": "COC[C@@]1(N)CCCN(c2cnc(-c3ccc(OC)c(F)c3)cc2Cn2cnc3c(N)ncnc32)C1 [Example 38]",
    "Assayed target": "NSD2 [1-1365] (Homo sapiens (Human))",
    "IC50": "10 to 1000 nM"
  },
  {
    "Compound": "Nc1ncnc2c1ncn2Cc1cc(-c2ccc(F)c(F)c2)ncc1N1CCCC(N)(C(=O)C2CCOC2)C1 (stereo not drawn)",
    "Assayed target": "NSD2 [1-1365] (Homo sapiens (Human))",
    "IC50": "> 1000 nM"
  },
  {
    "Compound": "COc1ccc(-c2cc(Cn3cnc4c(N)ncnc43)c(N3CCC[C@](N)([C@@H](O)C(F)F)C3)cn2)cc1F",
    "Assayed target": "NSD2 [1-1365] (Homo sapiens (Human))",
    "IC50": "1 to 10 nM"
  },
  {
    "Compound": "NC(=O)C[C@@]1(N)CCCN(c2cnc(-c3ccc(F)c(F)c3)cc2Cn2cnc3c(N)ncnc32)C1",
    "Assayed target": "NSD2 [1-1365] (Homo sapiens (Human))",
    "IC50": "10 to 1000 nM"
  },
  {
    "Compound": "CC1CCCN1C(=O)C1(N)CCCN(c2cnc(-c3ccc(F)c(F)c3)cc2Cn2cnc3c(N)ncnc32)C1 (stereo not drawn)",
    "Assayed target": "NSD2 [1-1365] (Homo sapiens (Human))",
    "IC50": "10 to 1000 nM"
  },
  {
    "Compound": "CNC(=O)CC1(N)CCCN(c2cnc(-c3ccc(F)c(F)c3)cc2Cn2cnc3c(N)nccc32)C1 (stereo not drawn)",
    "Assayed target": "NSD2 [1-1365] (Homo sapiens (Human))",
    "IC50": "10 to 1000 nM"
  },
  {
    "Compound": "Nc1ncnc2c1ncn2Cc1cc(-c2ccc(F)c(F)c2)ncc1N1CCC[C@](N)(Cc2ncco2)C1",
    "Assayed target": "NSD2 [1-1365] (Homo sapiens (Human))",
    "IC50": "1 to 10 nM"
  },
  {
    "Compound": "COc1ccc(-c2cc(Cn3cnc4c(N)ncnc43)c(N3CCC[C@](N)(COC(C)C)C3)cn2)cc1F",
    "Assayed target": "NSD2 [1-1365] (Homo sapiens (Human))",
    "IC50": "1 to 10 nM"
  },
  {
    "Compound": "N#CC1CCN(c2cnc(-c3ccc(F)c(F)c3)cc2Cn2cnc3c(N)ncnc32)CC1N (stereo not drawn)",
    "Assayed target": "NSD2 [1-1365] (Homo sapiens (Human))",
    "IC50": "> 1000 nM"
  },
  {
    "Compound": "C[C@@H](c1ccccn1)[C@@]1(N)CCCN(c2cnc(-c3ccc(F)c(F)c3)cc2Cn2cnc3c(N)ncnc32)C1",
    "Assayed target": "NSD2 [1-1365] (Homo sapiens (Human))",
    "IC50": "10 to 1000 nM"
  },
  {
    "Compound": "COc1ccc(-c2cc(Cn3cnc4c(N)ncnc43)c(N3CCC[C@](N)([C@H](O)C(F)F)C3)cn2)c(C(F)F)c1",
    "Assayed target": "NSD2 [1-1365] (Homo sapiens (Human))",
    "IC50": "1 to 10 nM"
  },
  {
    "Compound": "COc1ccc(-c2cc(Cn3cnc4c(N)ncnc43)c(N3CCC[C@](N)(C(=O)OC(C)(C)C)C3)cn2)cc1F",
    "Assayed target": "NSD2 [1-1365] (Homo sapiens (Human))",
    "IC50": "10 to 1000 nM"
  },
  {
    "Compound": "Nc1ncnc2c1ncn2Cc1cc(-c2cccc(F)c2)ncc1N1CCC[C@](N)(COC2CCC2)C1",
    "Assayed target": "NSD2 [1-1365] (Homo sapiens (Human))",
    "IC50": "1 to 10 nM"
  },
  {
    "Compound": "Cn1ccc(C[C@@]2(N)CCCN(c3cnc(-c4ccc(F)c(F)c4)cc3Cn3cnc4c(N)ncnc43)C2)n1",
    "Assayed target": "NSD2 [1-1365] (Homo sapiens (Human))",
    "IC50": "1 to 10 nM"
  }
]

====

test system: cellular H3K36me2 level in multiple myeloma cell line KMS11 (t(4;14)+); test: H3K36me2 cellular ELISA assay in KMS11-Par line; type: cell-based; conditions: Homo sapiens, KMS-11; KMS11-Par line, ELISA, 72 hours; read-out: H3K36me2 ELISA in KMS11-Par
pIC50: −log10 of the molar value.

[
  {
    "Molecule": "Cc1cc([C@@]2(N)CCCN(c3cnc(-c4ccc(F)c(F)c4)cc3Cn3cnc4c(N)ncnc43)C2)no1",
    "pIC50": 6.60
  },
  {
    "Molecule": "C#C[C@@]1(N)CCCN(c2cnc(-c3ccc(F)c(F)c3)cc2Cn2cnc3c(N)ncnc32)C1",
    "pIC50": 6.23
  },
  {
    "Molecule": "CCc1cccc([C@@]2(N)CCCN(c3cnc(-c4ccc(F)cc4)cc3Cn3cnc4c(N)ncnc43)C2)n1",
    "pIC50": 6.58
  },
  {
    "Molecule": "COc1ccc(-c2cc(Cn3cnc4c(N)ncnc43)c(N3CCC[C@](N)(c4cccc(Cl)n4)C3)cn2)c(F)c1",
    "pIC50": 5.70
  },
  {
    "Molecule": "COc1ccc(-c2cc(Cn3cnc4c(N)ncnc43)c(N3CCC[C@](N)(c4cccc(Cl)n4)C3)cn2)c(F)c1F",
    "pIC50": 5.09
  },
  {
    "Molecule": "Cc1cc([C@@]2(N)CCCN(c3cnc(-c4ccc(F)c(F)c4)cc3Cn3cnc4c(N)ncnc43)C2)ccn1",
    "pIC50": 4.48
  },
  {
    "Molecule": "Cc1nc([C@@]2(N)CCCN(c3cnc(-c4ccc(F)cc4)cc3Cn3cnc4c(N)ncnc43)C2)ccc1F",
    "pIC50": 6.16
  },
  {
    "Molecule": "Cc1cccc(C2(N)CCCN(c3cnc(C4CC4)cc3Cn3cnc4c(N)nccc43)C2)n1 (stereo not shown)",
    "pIC50": 5.38
  },
  {
    "Molecule": "Nc1nccc2c1ncn2Cc1cc(C2CCC2)ncc1N1CCCC(N)(c2cccc(Cl)n2)C1 (stereo not shown)",
    "pIC50": 5.72
  },
  {
    "Molecule": "Cn1ncc([C@@]2(N)CCCN(c3cnc(-c4ccc(F)c(F)c4)cc3Cn3cnc4c(N)ncnc43)C2)n1",
    "pIC50": 5.99
  },
  {
    "Molecule": "Nc1ncnc2c1ncn2Cc1cc(-c2ccc(F)c(F)c2)ncc1N1CCC[C@](N)(c2cc(O)cc(Cl)n2)C1",
    "pIC50": 5.46
  },
  {
    "Molecule": "COc1cc(F)ccc1-c1cc(Cn2cnc3c(N)ncnc32)c(N2CCC[C@](N)([C@H](O)C(F)F)C2)cn1",
    "pIC50": 4.89
  },
  {
    "Molecule": "CC(=C(F)F)[C@@]1(N)CCCN(c2cnc(-c3ccc(F)c(F)c3)cc2Cn2cnc3c(N)ncnc32)C1",
    "pIC50": 5.49
  },
  {
    "Molecule": "Cc1cccc([C@@]2(N)CCCN(c3cnc(-c4ccc(F)cc4)cc3Cn3cnc4c(N)nccc43)C2)n1",
    "pIC50": 6.63
  },
  {
    "Molecule": "Nc1ncnc2c1ncn2Cc1cc(-c2ccc(F)c(F)c2)ncc1N1CCCC(N)(c2ccc(O)c(F)n2)C1 (stereo not shown)",
    "pIC50": 5.62
  },
  {
    "Molecule": "Nc1ncnc2c1ncn2Cc1cc(-c2cc(F)c(F)cc2C(F)F)ncc1N1CCC[C@](N)([C@@H]2COCCO2)C1",
    "pIC50": 5.77
  },
  {
    "Molecule": "Nc1ncnc2c1ncn2Cc1cc(-c2ccc(F)c(F)c2)ncc1N1CCC[C@](N)(c2cc(O)cc(F)n2)C1",
    "pIC50": 5.94
  },
  {
    "Molecule": "COc1ccc(-c2cc(Cn3cnc4c(N)ncnc43)c(N3CCC[C@](N)(c4cccc(Cl)n4)C3)cn2)nc1F",
    "pIC50": 5.77
  },
  {
    "Molecule": "Nc1nccc2c1ncn2Cc1cc(-c2ccc(F)c(F)c2)ncc1N1CCC[C@](N)(c2cccc(C(F)F)n2)C1",
    "pIC50": 5.82
  },
  {
    "Molecule": "C[C@H]1COC[C@@H]([C@@]2(N)CCCN(c3cnc(-c4ccc(F)c(F)c4)cc3Cn3cnc4c(N)ncnc43)C2)O1",
    "pIC50": 5.24
  },
  {
    "Molecule": "Nc1ncnc2c1ncn2Cc1cc(-c2cnc(O)c(F)c2)ncc1N1CCCC(N)(c2cccc(Cl)n2)C1 (stereo not shown)",
    "pIC50": 4.48
  },
  {
    "Molecule": "Nc1ncnc2c1ncn2Cc1cc(-c2cc(F)c(F)cc2C(F)F)ncc1N1CCC[C@](N)([C@H](O)C(F)F)C1",
    "pIC50": 5.26
  },
  {
    "Molecule": "Nc1ncnc2c1ncn2Cc1cc(-c2ccc(F)cc2)ncc1N1CCCC(N)(c2cccc(Cl)n2)C1 (stereo not shown)",
    "pIC50": 6.20
  },
  {
    "Molecule": "Nc1ncnc2c1ncn2Cc1cc(-c2cnc(F)c(F)c2)ncc1N1CCCC(N)(c2cccc(Cl)n2)C1 (stereo not shown)",
    "pIC50": 5.23
  },
  {
    "Molecule": "Nc1ncnc2c1ncn2Cc1cc(-c2ccc(F)c(F)c2)ncc1N1CCC[C@](N)(c2ccc[nH]c2=O)C1",
    "pIC50": 4.98
  },
  {
    "Molecule": "Nc1ncnc2c1ncn2Cc1cc(-c2ccc(F)c(F)c2)ncc1N1CC[C@@H](O)[C@](N)(c2cccc(Cl)n2)C1",
    "pIC50": 6.25
  },
  {
    "Molecule": "Cc1cccc(C2(N)CCCN(c3cnc(-c4ccc(F)c(F)c4)cc3Cn3cnc4c(N)ncnc43)C2)n1 (stereo not shown)",
    "pIC50": 6.39
  },
  {
    "Molecule": "Nc1ncnc2c1ncn2Cc1cc(-c2ccc(F)cc2)ncc1N1CCC[C@](N)(c2cccc(C3CC3)n2)C1",
    "pIC50": 6.85
  }
]
